measured on: T1, Full length UL16 on transfected 293 EBNA cells (human cytomegalovirus, UniProt P16757 27-230)
T1 construct: whole, on cells; also called UL16 FL
T1 sequence: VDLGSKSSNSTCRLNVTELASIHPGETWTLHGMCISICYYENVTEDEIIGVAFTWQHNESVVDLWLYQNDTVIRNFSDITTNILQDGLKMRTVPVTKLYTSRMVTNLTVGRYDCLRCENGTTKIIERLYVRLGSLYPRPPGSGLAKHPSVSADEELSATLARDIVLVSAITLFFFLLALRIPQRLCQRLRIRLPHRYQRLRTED
test: flow cytometry, transfected 293 EBNA cells, 2 µg Fc protein + goat anti-human IgG PE
Parameter Mean Fluorescence Intensity (MFI): see the listing below.
Remember to follow the number with its unit.

These solved cases illustrate the format of a correct answer.
[[record]]
binder = "UL16-Fc fusion protein (Fc fusion, extracellular domain; not shown: IgG1 Fc (mutein form), as described for OX40-Fc (Baum et al., EMBO J. 13:3992-4001, 1994); the mutein is described in p-) VDLGSKSSNSTCRLNVTELASIHPGETWTLHGMCISICYYENVTEDEIIGVAFTWQHNESVVDLWLYQNDTVIRNFSDITTNILQDGLKMRTVPVTKLYTSRMVTNLTVGRYDCLRCENGTTKIIERLYVRLGSLYPRPPGSGLAKHPSVSADEELSA"
endpoint_name = "Mean Fluorescence Intensity (MFI)"
result = "17.9 MFI"

[[record]]
binder = "MICA/Fc (Fc fusion, UniProt Q29983 24-307, looked up, not shown: Fc portion not described) EPHSLRYNLTVLSWDGSVQSGFLTEVHLDGQPFLRCDRQKCRAKPQGQWAEDVLGNKTWDRETRDLTGNGKDLRMTLAHIKDQKEGLHSLQEIRVCEIHEDNSTRSSQHFYYDGELFLSQNLETKEWTMPQSSRAQTLAMNVRNFLKEDAMKTKTHYHAMHADCLQELRRYLKSGVVLRRTVPPMVNVTRSEASEGNITVTCRASGFYPWNITLSWRQDGVSLSHDTQQWGDVLPDGNGTYQTWVATRICQGEEQRFTCYMEHSGNHSTHPVPSGKVLVLQSHW"
endpoint_name = "Mean Fluorescence Intensity (MFI)"
result = "14 MFI"

[[record]]
binder = "ULBP3/Fc (Fc fusion, That entry lacks the first five residues of the leader and still holds the rest of the signal peptide and the GPI signal; not shown: Fc portion of ULBP3/Fc is not described) DAHSLWYNFTIIHLPRHGQQWCEVQSQVDQKNFLSYDCGSDKVLSMGHLEEQLYATDAWGKQLEMLREVGQRLRLELADTELEDFTPSGPLTLQVRMSCECEADGYIRGSWQFSFDGRKFLLFDSNNRKWTVVHAGARRMKEKWEKDSGLTTFFKMVSMRDCKSWLRDFLMHRKKRLEPTAPPTMAPG"
endpoint_name = "Mean Fluorescence Intensity (MFI)"
result = "11.9 MFI"


We now examine a further binder.
Request: Which value of Mean Fluorescence Intensity (MFI) has been reported for MICB/Fc (Fc fusion, UniProt Q29980 23-309, looked up, also called MICB1/FC; not shown: Fc portion not described) AEPHSLRYNLMVLSQDGSVQSGFLAEGHLDGQPFLRYDRQKRRAKPQGQWAENVLGAKTWDTETEDLTENGQDLRRTLTHIKDQKGGLHSLQEIRVCEIHEDSSTRGSRHFYYDGELFLSQNLETQESTVPQSSRAQTLAMNVTNFWKEDAMKTKTHYRAMQADCLQKLQRYLKSGVAIRRTVPPMVNVTCSEVSEGNITVTCRASSFYPRNITLTWRQDGVSLSHNTQQWGDVLPDGNGTYQTWVATRIRQGEEQRFTCYMEHSGNHGTHPVPSGKALVLQSQRTD in the records?
Result: 94.5 MFI
